Tested on: Trichophyton mentagrophytes
Test: Antifungal activity in vitro, resazurin growth inhibition screen: Trichophyton mentagrophytes
Format: cell-based
Conditions: Trichophyton mentagrophytes B70554; read-out: Inf. G pIC50 (converted)
REPORTED PROPERTY: IC50

Use the examples below as a reference point.
MOLECULE: O=C1CCc2ccc(C3=NCc4c(Cl)cccc4-n4cccc43)cc21
IC50: 25100 nM

MOLECULE: Fc1cccc2c1CN=C(c1ccc3c(c1)OC(F)(F)O3)c1cccn1-2
IC50: 115 nM

Would you mind listing IC50 for each of the following molecules?
1. Cl.Clc1cccc2c1CNC(c1ccc3c(c1)CCC3)c1cccn1-2 (stereo not drawn)
2. Clc1cc(Cl)c2c(c1)-n1cccc1C(c1ccc3c(c1)CCO3)=NC2
3. O=C1CCCc2cc(C3=NCc4ccc(Cl)cc4-n4cccc43)ccc21
4. O=C1CCc2cc(C3=NCc4c(Cl)cccc4-n4cccc43)ccc21
5. Clc1ccc(Cl)c2c1CN=C(c1ccc3c(c1)CCC3)c1cccn1-2
6. O=C1CCCc2cc(C3=NCc4cccc(Cl)c4-n4cccc43)ccc21
7. FC1(F)CCc2cc(C3=NCc4ccc(Cl)cc4-n4cccc43)ccc2O1
8. Clc1cccc2c1-n1cccc1C(c1ccc3c(c1)CCCO3)=NC2

**A:**
["58.9 nM", "331 nM", "> 64600 nM", "562 nM", "6030 nM", "> 64600 nM", "309 nM", "219 nM"]

Answer for every listed entry: what is its IC50? The entries follow.
1. Fc1cc(Cl)c2c(c1)-n1cccc1C(c1ccc3c(c1)CCC3(F)F)=NC2
2. Clc1cc(Cl)c2c(c1)-n1cccc1C(c1ccc3c(c1)CCC3)=NC2

**A:**
1: 871 nM; 2: 794 nM

* * *

Record form. Attribute: IC50. Fill in for each entry.
Tested on: Aspergillus fumigatus
Experiment: Antifungal activity in vitro, resazurin growth inhibition screen: Aspergillus fumigatus
Assay type: cell-based
Conditions: Aspergillus fumigatus B42928; read-out: Inf. E pIC50 (converted)
Give bare numbers, in nM.

Examples with their reported IC50 follow.
SMILES INPUT: Cn1c(=O)oc2ccc(C3=NCc4c(Cl)cccc4-n4cccc43)cc21
IC50, nM: 562

SMILES INPUT: FC1(F)CCc2cc(C3=NCc4c(Cl)cccc4-n4cccc43)ccc2O1
IC50, nM: 129

SMILES INPUT: O=C1OCc2cc(C3=NCc4c(Cl)cccc4-n4cccc43)ccc21
IC50, nM: 372

Kindly consider the entry below.
IC50 in this record for O=C1CCCc2cc(C3=NCc4c(Cl)cccc4-n4cccc43)ccc21 : 135

* * *

System: Rhizopus oryzae
Assay: Antifungal activity in vitro, resazurin growth inhibition screen: Rhizopus oryzae
Assay type: cell-based
Details: Rhizopus oryzae IHEM5223
Procedure: The standard susceptibility screen was performed in 96-well plates (U-bottom, Greiner Bio-One). Serial dilutions (2-fold or 4-fold) of 20 mM compound stock solutions were made in 100% DMSO, followed by an intermediate dilution step in water. These serial dilutions (10 μl) were then spotted onto test-plates that could be stored in the dark at 4° C. for a maximum period of 2 weeks. An adequate broad dose-range was included with 64 μM as the highest in-test concentration. […]
REPORTED PROPERTY: Inf. J pIC50

COMPOUND: FC1(F)Oc2ccc(C3=NCc4c(Cl)cccc4-n4cccc43)cc2O1 [Compound 74]
Inf. J pIC50: <4.19

COMPOUND: CN1CCc2cc(C3=NCc4c(Cl)cccc4-n4cccc43)ccc21 [Compound 83]
Inf. J pIC50: <4.19

COMPOUND: Fc1cc(F)c2c(c1)-n1cccc1C(c1ccc3c(c1)OC(F)(F)O3)=NC2 [Compound 78]
Inf. J pIC50: <4.19

COMPOUND: Cl.Clc1cccc2c1CNC(c1ccc3c(c1)CCOC3)c1cccn1-2 (centres unmarked) [Compound 28]
Inf. J pIC50: <4.19

GET /value?item= FC1(F)Oc2ccc(C3=NCc4cccc(Cl)c4-n4cccc43)cc2O1 [Compound 76] &field=Inf. J pIC50 returns 4.57
